Origin of values: ChEMBL document CHEMBL5724914

# Measurement Conditions: human gut metagenome, 24 h, 2 µM; further: call rule not given here
Quantity Measured: Bacterial Biotransformation

[
  {
    "Compound": "CN1[C@@H]2CC[C@H]1C[C@@H](OC(=O)c1c[nH]c3ccccc13)C2",
    "Value": "Compound NOT metabolized"
  },
  {
    "Compound": "N=C(N)NC(=O)Cc1c(Cl)cccc1Cl",
    "Value": "Compound NOT metabolized"
  },
  {
    "Compound": "CC(=O)OCC(=O)[C@@]1(OC(C)=O)[C@@H](C)C[C@H]2[C@@H]3C[C@H](F)C4=CC(=O)C=C[C@]4(C)[C@@]3(F)[C@@H](O)C[C@@]21C [DIFLORASONE DIACETATE]",
    "Value": "Compound metabolized"
  },
  {
    "Compound": "CCN(CC)CCNC(=O)c1cc(S(C)(=O)=O)ccc1OC [TIAPRIDE]",
    "Value": "Compound NOT metabolized"
  },
  {
    "Compound": "CN(C)CCOC(C)(c1ccccc1)c1ccccn1.O=C(O)CCC(=O)O (centres undefined) [DOXYLAMINE SUCCINATE]",
    "Value": "Compound NOT metabolized"
  },
  {
    "Compound": "CCN(C)C(=O)Oc1cccc([C@H](C)N(C)C)c1.O=C(O)C(O)C(O)C(=O)O [RIVASTIGMINE TARTRATE]",
    "Value": "Compound NOT metabolized"
  },
  {
    "Compound": "CN1CCC[C@@H]1CCO[C@](C)(c1ccccc1)c1ccc(Cl)cc1.O=C(O)/C=C/C(=O)O [CLEMASTINE FUMARATE]",
    "Value": "Compound metabolized"
  },
  {
    "Compound": "CC(C)(C)NCC(O)COc1cccc2c1CC(O)C(O)C2 (centres undefined)",
    "Value": "Compound NOT metabolized"
  },
  {
    "Compound": "CCOC(=O)C1=C[C@]2(CC)CCCN3CCc4c(n1c1ccccc41)[C@@H]32",
    "Value": "Compound metabolized"
  }
]

----------
# Measurement Conditions: human gut metagenome, 24 h, 2 µM

[
  {
    "Compound": "Clc1cccc(Cl)c1N=C1NCCN1",
    "Bacterial Biotransformation": "Compound NOT metabolized"
  },
  {
    "Compound": "CC(=O)O[C@]1(C(C)=O)CC[C@H]2[C@@H]3C=C(C)C4=CC(=O)CC[C@]4(C)[C@H]3CC[C@@]21C [MEGESTROL ACETATE]",
    "Bacterial Biotransformation": "Compound metabolized"
  },
  {
    "Compound": "Cc1ccccc1C(OCCN(C)C)c1ccccc1.O=C(O)CC(O)(CC(=O)O)C(=O)O (stereo not drawn) [ORPHENADRINE CITRATE]",
    "Bacterial Biotransformation": "Compound NOT metabolized"
  },
  {
    "Compound": "CN(C)CCC=C1c2ccccc2COc2ccccc21 [DOXEPIN]",
    "Bacterial Biotransformation": "Compound NOT metabolized"
  },
  {
    "Compound": "OCCN(CCO)c1nc(N2CCCCC2)c2nc(N(CCO)CCO)nc(N3CCCCC3)c2n1",
    "Bacterial Biotransformation": "Compound NOT metabolized"
  },
  {
    "Compound": "CN1[C@@H]2CC[C@H]1C[C@@H](OC(=O)c1c[nH]c3ccccc13)C2",
    "Bacterial Biotransformation": "Compound NOT metabolized"
  },
  {
    "Compound": "O=C(O)c1cc(/N=N/c2ccc(S(=O)(=O)Nc3ccccn3)cc2)ccc1O",
    "Bacterial Biotransformation": "Compound metabolized"
  },
  {
    "Compound": "CN1CCC(=C2c3ccccc3CC(=O)c3sccc32)CC1.O=C(O)/C=C/C(=O)O [KETOTIFEN FUMARATE]",
    "Bacterial Biotransformation": "Compound NOT metabolized"
  }
]

----------
# Measurement Conditions: human gut metagenome, 24 h, 2 µM
Quantity Measured: Bacterial Biotransformation

[
  {
    "Compound": "O=C(O)c1cc(/N=N/c2ccc(S(=O)(=O)Nc3ccccn3)cc2)ccc1O",
    "Value": "Compound metabolized"
  },
  {
    "Compound": "CC(=O)Nc1ccc(OC(C)=O)cc1 [DIACETAMATE]",
    "Value": "Compound metabolized"
  },
  {
    "Compound": "CCOC(=O)[C@H](CCc1ccccc1)N[C@@H](C)C(=O)N1Cc2ccccc2C[C@H]1C(=O)O",
    "Value": "Compound metabolized"
  },
  {
    "Compound": "Cc1ccccc1C(OCCN(C)C)c1ccccc1.O=C(O)CC(O)(CC(=O)O)C(=O)O (configuration not stated) [ORPHENADRINE CITRATE]",
    "Value": "Compound NOT metabolized"
  },
  {
    "Compound": "O=C1CC2(CCCC2)CC(=O)N1CCCCN1CCN(c2ncccn2)CC1",
    "Value": "Compound metabolized"
  },
  {
    "Compound": "CCOC(=O)[C@H](CCc1ccccc1)N[C@@H](C)C(=O)N1CCC[C@H]1C(=O)O.O=C(O)/C=C\\C(=O)O [ENALAPRIL MALEATE]",
    "Value": "Compound NOT metabolized"
  },
  {
    "Compound": "C[C@]12CCC(=O)C=C1[C@@H]1C[C@@H]1[C@H]1[C@@H]3[C@@H]4C[C@@H]4[C@@]4(CCC(=O)O4)[C@@]3(C)CC[C@@H]12",
    "Value": "Compound NOT metabolized"
  },
  {
    "Compound": "CN1CCC[C@@H]1CCO[C@](C)(c1ccccc1)c1ccc(Cl)cc1.O=C(O)/C=C/C(=O)O [CLEMASTINE FUMARATE]",
    "Value": "Compound NOT metabolized"
  },
  {
    "Compound": "CN1[C@@H]2CC[C@H]1C[C@@H](OC(=O)c1c[nH]c3ccccc13)C2",
    "Value": "Compound NOT metabolized"
  },
  {
    "Compound": "CC(N)C12CC3CC(CC(C3)C1)C2 (configuration not stated)",
    "Value": "Compound NOT metabolized"
  },
  {
    "Compound": "OC(c1cc(C(F)(F)F)nc2c(C(F)(F)F)cccc12)C1CCCCN1 (configuration not stated)",
    "Value": "Compound NOT metabolized"
  },
  {
    "Compound": "CN(C/C=C/C#CC(C)(C)C)Cc1cccc2ccccc12",
    "Value": "Compound NOT metabolized"
  },
  {
    "Compound": "Nc1nnc(-c2cccc(Cl)c2Cl)c(N)n1",
    "Value": "Compound NOT metabolized"
  },
  {
    "Compound": "CCN(C)C(=O)Oc1cccc([C@H](C)N(C)C)c1.O=C(O)C(O)C(O)C(=O)O [RIVASTIGMINE TARTRATE]",
    "Value": "Compound NOT metabolized"
  },
  {
    "Compound": "CC(=O)O[C@]1(C(C)=O)CC[C@H]2[C@@H]3C=C(C)C4=CC(=O)CC[C@]4(C)[C@H]3CC[C@@]21C [MEGESTROL ACETATE]",
    "Value": "Compound metabolized"
  },
  {
    "Compound": "CCS(=O)(=O)CCn1c([N+](=O)[O-])cnc1C",
    "Value": "Compound metabolized"
  },
  {
    "Compound": "O=C1N=C([O-])NC1(c1ccccc1)c1ccccc1.[Na+] [PHENYTOIN SODIUM]",
    "Value": "Compound NOT metabolized"
  }
]

----------
# Measurement Conditions: human gut metagenome, 24 h, 2 µM
Quantity Measured: Bacterial Biotransformation

[
  {
    "Compound": "CNCC[C@H](Oc1cccc2ccccc12)c1cccs1",
    "Value": "Compound NOT metabolized"
  },
  {
    "Compound": "CCN(CC)C(=O)C1(c2ccccc2)CC1CN (centres undefined)",
    "Value": "Compound NOT metabolized"
  },
  {
    "Compound": "COc1cc2nc(N3CCN(C(=O)C4COc5ccccc5O4)CC3)nc(N)c2cc1OC.CS(=O)(=O)O (centres undefined) [DOXAZOSIN MESYLATE]",
    "Value": "Compound NOT metabolized"
  },
  {
    "Compound": "CN1CCN2c3ccccc3Cc3ccccc3C2C1 (centres undefined)",
    "Value": "Compound NOT metabolized"
  },
  {
    "Compound": "CCN1CCCC1CNC(=O)c1cc(S(=O)(=O)CC)c(N)cc1OC (centres undefined) [AMISULPRIDE]",
    "Value": "Compound NOT metabolized"
  },
  {
    "Compound": "COc1ccccc1OCCNCC(O)COc1cccc2[nH]c3ccccc3c12 (centres undefined)",
    "Value": "Compound NOT metabolized"
  },
  {
    "Compound": "CCOc1ccc2nc(S(N)(=O)=O)sc2c1 [ETHOXZOLAMIDE]",
    "Value": "Compound NOT metabolized"
  },
  {
    "Compound": "CN(C)C(=O)Oc1cccc([N+](C)(C)C)c1.[Br-] [NEOSTIGMINE BROMIDE]",
    "Value": "Compound NOT metabolized"
  },
  {
    "Compound": "OCCN(CCO)c1nc(N2CCCCC2)c2nc(N(CCO)CCO)nc(N3CCCCC3)c2n1",
    "Value": "Compound NOT metabolized"
  },
  {
    "Compound": "O=C(NC(Cc1cc(=O)[nH]c2ccccc12)C(=O)O)c1ccc(Cl)cc1 (centres undefined) [REBAMIPIDE]",
    "Value": "Compound NOT metabolized"
  },
  {
    "Compound": "Cc1ccccc1C(OCCN(C)C)c1ccccc1.O=C(O)CC(O)(CC(=O)O)C(=O)O (centres undefined) [ORPHENADRINE CITRATE]",
    "Value": "Compound NOT metabolized"
  },
  {
    "Compound": "CC(=O)OCC(=O)[C@@]1(OC(C)=O)[C@@H](C)C[C@H]2[C@@H]3C[C@H](F)C4=CC(=O)C=C[C@]4(C)[C@@]3(F)[C@@H](O)C[C@@]21C [DIFLORASONE DIACETATE]",
    "Value": "Compound metabolized"
  },
  {
    "Compound": "C=C[C@H]1CN2CC[C@H]1C[C@H]2[C@H](O)c1ccnc2ccc(OC)cc12.C=C[C@H]1CN2CC[C@H]1C[C@H]2[C@H](O)c1ccnc2ccc(OC)cc12.O.O.O=S(=O)(O)O [QUININE SULFATE]",
    "Value": "Compound NOT metabolized"
  },
  {
    "Compound": "COc1ccc([C@@H]2Sc3ccccc3N(CCN(C)C)C(=O)[C@@H]2OC(C)=O)cc1",
    "Value": "Compound NOT metabolized"
  },
  {
    "Compound": "CC(=O)O[C@H]1C(=O)[C@@]2(C)[C@H]([C@H](OC(=O)c3ccccc3)[C@]3(O)C[C@H](OC(=O)[C@H](O)[C@@H](NC(=O)c4ccccc4)c4ccccc4)C(C)=C1C3(C)C)[C@]1(OC(C)=O)CO[C@@H]1C[C@@H]2O",
    "Value": "Compound NOT metabolized"
  },
  {
    "Compound": "CCCC(C)(COC(N)=O)COC(=O)NC(C)C (centres undefined)",
    "Value": "Compound NOT metabolized"
  },
  {
    "Compound": "O=C(CCCN1CCC2(CC1)C(=O)NCN2c1ccccc1)c1ccc(F)cc1",
    "Value": "Compound metabolized"
  },
  {
    "Compound": "C=CC[C@@H]1/C=C(\\C)C[C@H](C)C[C@H](OC)[C@H]2O[C@@](O)(C(=O)C(=O)N3CCCC[C@H]3C(=O)O[C@H](/C(C)=C/[C@@H]3CC[C@@H](O)[C@H](OC)C3)[C@H](C)[C@@H](O)CC1=O)[C@H](C)C[C@@H]2OC.O",
    "Value": "Compound metabolized"
  },
  {
    "Compound": "CN1CCC(=C2c3ccccc3CC(=O)c3sccc32)CC1.O=C(O)/C=C/C(=O)O [KETOTIFEN FUMARATE]",
    "Value": "Compound NOT metabolized"
  },
  {
    "Compound": "CC(C)(C)NCC(O)c1cc(Cl)c(N)c(Cl)c1 (centres undefined)",
    "Value": "Compound NOT metabolized"
  },
  {
    "Compound": "Br.CN1CCC[C@@H]1Cc1c[nH]c2ccc(CCS(=O)(=O)c3ccccc3)cc12 [ELETRIPTAN HYDROBROMIDE]",
    "Value": "Compound NOT metabolized"
  },
  {
    "Compound": "C[C@]12CCC(=O)C=C1[C@@H]1C[C@@H]1[C@H]1[C@@H]3[C@@H]4C[C@@H]4[C@@]4(CCC(=O)O4)[C@@]3(C)CC[C@@H]12",
    "Value": "Compound NOT metabolized"
  },
  {
    "Compound": "COC(=O)[C@H](c1ccccc1Cl)N1CCc2sccc2C1.O=S(=O)(O)O [CLOPIDOGREL BISULFATE]",
    "Value": "Compound metabolized"
  },
  {
    "Compound": "CCCCC(=O)O[C@]1(C(=O)CO)[C@@H](C)C[C@H]2[C@@H]3CCC4=CC(=O)C=C[C@]4(C)[C@@]3(F)[C@@H](O)C[C@@]21C [BETAMETHASONE VALERATE]",
    "Value": "Compound NOT metabolized"
  },
  {
    "Compound": "O=C(O)CCC(=O)O.O=C(O[C@H]1CN2CCC1CC2)N1CCc2ccccc2[C@@H]1c1ccccc1 [SOLIFENACIN SUCCINATE]",
    "Value": "Compound metabolized"
  },
  {
    "Compound": "N#Cc1ccc2c(c1)N(CCCN1CCC(O)CC1)c1ccccc1S2",
    "Value": "Compound NOT metabolized"
  },
  {
    "Compound": "COc1cc2nc(N3CCN(C(=O)C4CCCO4)CC3)nc(N)c2cc1OC (centres undefined)",
    "Value": "Compound NOT metabolized"
  },
  {
    "Compound": "CNNCc1ccc(C(=O)NC(C)C)cc1",
    "Value": "Compound metabolized"
  },
  {
    "Compound": "C#C[C@]1(OC(C)=O)CC[C@H]2[C@@H]3CCC4=CC(=O)CC[C@@H]4[C@H]3CC[C@@]21C [NORETHINDRONE ACETATE]",
    "Value": "Compound metabolized"
  }
]
